Experiment Description: TOX21_p53_BLA_p4_viability: Viability Assessment in the Tox21 HCT-116 p53 Agonism Beta-lactamase Assay, Phase 4 (AID 2283597);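 note: hits lower the luminescence signal meaning cytotoxicity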
Records with an inconclusive call do not appear. Calls of active or inactive are those of the source. Rule for the calls: active = hit-call score of the fitted dose curve at least 0.9, where 1 is the maximum; inconclusive = response in the unintended direction; inactive = score below 0.9.
Measurement Name: AC50

input: Determine from records and report AC50 for NCc1cccc(CN)c1
output: inactive

input: Determine from records and report AC50 for CC(C)C=O
output: inactive

input: Please list AC50 recorded for the compound Cc1ccccc1C(OCCN(C)C)c1ccccc1 (centres undefined)
output: inactive

input: Please supply the value of reported AC50 for the item c1cnc2c(c1)ccc1cccnc12
output: 41.8 µM (active)

input: Entry CCC(=O)C=Cc1ccc(OC)cc1 needs its AC50 filled in; supply it.
output: inactive

---
input: Return reported AC50. Input compound: CC(=O)CC(C)C
output: inactive

input: Could you please provide reported AC50 for Oc1ccc(Cc2ccccc2O)cc1 ? Thanks!
output: inactive

input: Give a short answer stating reported AC50 for CCCCCCCCCCCC(=O)NCCCN(C)C .
output: 29 µM (active)

input: Return reported AC50. Input compound: COc1ccccc1NC(=O)c1cc2ccccc2cc1O
output: inactive

input: Return AC50 (reported value) for this compound: CC1=NN(c2ccccc2)C(=O)C1
output: inactive

* * *

Assay System: Estrogen receptor (Homo sapiens) (UniProt P03372)
Sequence (P03372 whole entry, looked up): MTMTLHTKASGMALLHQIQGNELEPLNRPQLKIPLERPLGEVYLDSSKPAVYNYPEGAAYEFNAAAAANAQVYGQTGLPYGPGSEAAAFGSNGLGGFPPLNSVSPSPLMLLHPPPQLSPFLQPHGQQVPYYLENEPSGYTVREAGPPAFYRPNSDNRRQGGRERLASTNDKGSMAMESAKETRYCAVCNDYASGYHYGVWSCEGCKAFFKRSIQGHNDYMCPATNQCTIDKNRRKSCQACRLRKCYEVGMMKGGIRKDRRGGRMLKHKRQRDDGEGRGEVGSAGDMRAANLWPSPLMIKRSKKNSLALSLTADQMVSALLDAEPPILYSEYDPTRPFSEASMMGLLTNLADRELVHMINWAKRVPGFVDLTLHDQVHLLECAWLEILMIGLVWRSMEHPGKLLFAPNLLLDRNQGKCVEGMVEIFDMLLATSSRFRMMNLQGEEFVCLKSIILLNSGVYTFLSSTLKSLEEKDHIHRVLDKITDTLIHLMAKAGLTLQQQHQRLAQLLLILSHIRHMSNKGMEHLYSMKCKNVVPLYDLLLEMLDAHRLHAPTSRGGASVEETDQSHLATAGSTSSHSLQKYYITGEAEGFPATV
Experiment Description: ATG_ERa_TRANS: Attagene TRANS-FACTORIAL HepG2 Assay for human Estrogen Receptor alpha (ERa) (AID 2282970)
Condition Parameters: HepG2 Attagene TRANS ERa GAL4 reporter, mRNA
Results filed as inconclusive are left out. The source made the active and inactive calls. How the source made its calls: active means hit-call score of the fitted dose curve at least 0.9, where 1 is the maximum; inconclusive means response in the unintended direction; inactive means score below 0.9.
Pick one: 1 (yes) (active), 0 (no) (inactive)

input: For CCC(=O)O , which call appears in the assay record?
output: 0 (no)

input: For this molecule, state the assay outcome: O=C(F)C(F)(F)C(F)(F)C(F)(F)C(=O)F
output: 0 (no)

input: Short answer needed: outcome of this test for CCCCc1oc2ccccc2c1C(=O)c1cc(I)c(OCCN(CC)CC)c(I)c1 ?
output: 0 (no)

input: Assay result, entry O=C1C=CC(=O)N1c1cccc(N2C(=O)C=CC2=O)c1 — outcome?
output: 0 (no)

input: Could you please tell me the result logged for Oc1ccc(Cc2ccccc2O)cc1 in this assay?
output: 1 (yes)

input: Recorded test call requested for CCCCCCCCCCCCCCCC(=O)OC
output: 0 (no)

input: Test call, this molecule: c1cc2cccc3c4cccc5cccc(c(c1)c23)c54
output: 0 (no)

input: Hi, sorry to bother you, what did the test record for O=C(F)C(F)(F)C(F)(F)C(F)(F)C(F)F ?
output: 0 (no)

input: Can you look up the reported call for FC1(F)C=CC(F)(F)C1(F)F for me?
output: 0 (no)

input: I would be grateful if you could indicate the recorded call for NCCN .
output: 0 (no)

input: # lookup: test call for O=P(O)(O)CCC(F)(F)C(F)(F)C(F)(F)C(F)(F)C(F)(F)C(F)(F)F
output: 0 (no)

input: Which outcome was entered for the molecule CN(C)CCOC(c1ccccc1)c1ccccc1 in this test?
output: 0 (no)

input: Fill in: this test's call for NNc1nc(-c2ccc([N+](=O)[O-])cc2)cs1 is ___
output: 0 (no)

input: Any idea what this test logged for N=C(N)c1ccc(OCCCCCOc2ccc(C(=N)N)cc2)cc1 ?
output: 1 (yes)

input: Please let me know the test result on file for O=S(=O)(c1ccc(OCc2ccccc2)cc1)c1ccccc1O .
output: 0 (no)

input: Hello, I am checking results. What call was entered for CC1=CC(=O)c2ccccc2C1=O ?
output: 0 (no)

input: Hi team, can someone confirm the assay call for Cc1cccc2c1ccc1ccccc12 ?
output: 1 (yes)

input: Please let me know the test result on file for COCC1CCC(CO)CC1 (centres undefined) .
output: 0 (no)

input: Name the outcome recorded for COc1ccc(C#N)cc1 in the assay.
output: 0 (no)

input: Hi, sorry to bother you, what did the test record for FC(F)(F)N1C(F)(F)C(F)(F)OC(F)(F)C1(F)F ?
output: 0 (no)

input: Dear all, I need the recorded test outcome for CCCCCCCCCCCC[N+](C)(C)CCCCCCCCCCCC , thank you.
output: 0 (no)

input: Identify the outcome logged in this assay for the molecule shown: O=C(CC(=O)C(F)(F)C(F)(F)C(F)(F)F)c1cccs1
output: 0 (no)

input: Dear all, I need the recorded test outcome for CCCCCCCCC(C)=O , thank you.
output: 0 (no)

input: Give the logged outcome of this assay for the following molecule: Nc1cc(Cl)c(-c2cc(Cl)c(N)cc2Cl)cc1Cl
output: 0 (no)

input: Write down the call the test reported for this molecule. Item: CCCCCc1ccc(O)cc1
output: 1 (yes)

input: So what was the verdict on Oc1cccc2c(O)cccc12 in this test?
output: 1 (yes)

input: # fetch the recorded call for COC(=O)CC(C(C)=O)C(=O)OC (centres undefined) here
output: 0 (no)

input: Which outcome was entered for the molecule Oc1cc2ccccc2cc1O in this test?
output: 0 (no)

input: Hi, sorry to bother you, what did the test record for COC1=CC(=O)C[C@@H](C)[C@]12Oc1c(Cl)c(OC)cc(OC)c1C2=O ?
output: 0 (no)

* * *

Read-out: Human Leukocyte Antigen - DR isotype (HLADR), HLA-DRA (gene 3122)
Experiment Description: BSK_CASM3C_HLADR: BioMAP Diversity Plus: CASM3C Assay for Human Leukocyte Antigen - DR isotype (HLADR) Biomarker Activity (AID 2283043);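 note: cell-surface HLA-DR protein level quantified by ELISA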
Condition Parameters: primary human coronary artery smooth muscle cells; actives raise or lower the signal
The source made the active and inactive calls. Rule for the calls: active = hit-call score of the fitted dose curve at least 0.9, where 1 is the maximum; inactive = score below 0.9.
Your response should consist of one outcome taken from 1 (yes) (active), 0 (no) (inactive)

input: What was the test verdict on N=C(N)c1ccc(OCCCCCOc2ccc(C(=N)N)cc2)cc1 ?
output: 1 (yes)

input: Per the assay record, what outcome was assigned to O=C(O)CCC(F)(F)C(F)(F)C(F)(F)C(F)(F)C(F)(F)C(F)(F)F ?
output: 0 (no)

input: Could you kindly confirm the outcome this assay logged for C[C@]12CC[C@@H]3c4ccc(O)cc4CC[C@H]3[C@@H]1C[C@@H](O)[C@@H]2O ?
output: 0 (no)

input: Dear all, I need the recorded test outcome for O=C(NO)c1ccccc1 , thank you.
output: 0 (no)

input: What outcome does the record of this test show for O=C1NS(=O)(=O)c2ccccc21 ?
output: 0 (no)

input: Call for entry O=C(NCc1ncc(C(F)(F)F)cc1Cl)c1c(Cl)cccc1Cl :
output: 0 (no)

input: # lookup: test call for CCCCC(CC)C(=O)O (configuration not stated)
output: 0 (no)

input: So what was the verdict on Cc1[nH]nc2c1N=C(c1ccccc1Cl)c1cc([N+](=O)[O-])ccc1N2 in this test?
output: 1 (yes)

input: Given CCCCCCCCCCCCCCCCCC[N+](C)(C)Cc1ccccc1 , state the outcome it received in this test.
output: 1 (yes)

input: Could you check what this test reported for C=COC(=O)C(C)(C)CCCCCC ?
output: 1 (yes)

input: Which outcome was entered for the compound CC1=NN(c2ccccc2)C(=O)C1 in this test?
output: 0 (no)

input: Call for entry CCCCc1oc2ccccc2c1C(=O)c1cc(I)c(OCCN(CC)CC)c(I)c1 :
output: 1 (yes)

* * *

Experiment Description: CCTE_Shafer_MEA_acute_per_network_burst_spike_number_std: CCTE's Neural Acute Assay for Standard Deviation of Number of Spikes in a Network Burst, Shafer Lab (AID 2284020);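 note: fitted for decrease in spike-number SD versus DMSO so actives lower it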
Active and inactive are the calls of the source. Rule for the calls: active = hit-call score of the fitted dose curve at least 0.9, where 1 is the maximum; inactive = score below 0.9.
Allowed answers: 1 for active, -1 for inactive

input: Could you please tell me the result logged for N=C(N)c1ccc(OCCCCCOc2ccc(C(=N)N)cc2)cc1 in this assay?
output: -1

input: Given CCCCCCCCCCCC , state the outcome it received in this test.
output: -1

input: Query: recorded result category for CN(C)CCOC(c1ccccc1)c1ccccc1 in this test
output: -1

input: Could you kindly confirm the outcome this assay logged for CCC(C)c1ccccc1O (centres undefined) ?
output: -1

input: Short answer needed: outcome of this test for Oc1c(Cl)cc(Cl)cc1Sc1cc(Cl)cc(Cl)c1O ?
output: 1

input: Please indicate how the test categorized O=C1NS(=O)(=O)c2ccccc21 .
output: -1

input: I'd appreciate the recorded outcome for Oc1ccc(Cc2ccccc2O)cc1 from this test.
output: -1

input: GET /call?item= CCCCc1oc2ccccc2c1C(=O)c1cc(I)c(OCCN(CC)CC)c(I)c1 returns the recorded outcome of this test.
output: -1

input: Record request — test call for CCCCC=O
output: -1

* * *

Read-out: Insulin Like Growth Factor 1 (IGF1), IGF1 (gene 3479)
Experiment Description: LTEA_HepaRG_IGF1: Life Technologies and Expression Analysis (LTEA) Assay for Insulin Like Growth Factor 1 (IGF1) using HepaRG (AID 2283506)
Condition Parameters: mRNA level, 48 h; actives raise or lower the signal
Calls of active or inactive are those of the source. Rule for the calls: active = hit-call score of the fitted dose curve at least 0.9, where 1 is the maximum; inactive = score below 0.9.
Measurement Name: AC50

Previously resolved entries follow.
input: In one line, give reported AC50 of the entry OCC(CO)(CBr)CBr .
output: inactive

input: Tell me its AC50 given CS(=O)(=O)c1ccc([C@@H](CC2CCCC2)C(=O)Nc2cnccn2)cc1Cl as the entry.
output: 32.8 µM (active)

input: Input CCCCC=O , output reported AC50.
output: inactive

input: Could you please provide reported AC50 for CCCCCCCCCCCCCCC ? Thanks!
output: inactive

input: Report AC50 for CCCCC(CC)C(=O)O (stereo unspecified)
output: inactive

API: the following record is the query input.
input: # return recorded AC50 for input N=C(N)c1ccc(OCCCCCOc2ccc(C(=N)N)cc2)cc1
output: 11.1 µM (active)
